measuredOn: T1, Recombinant in-house Human FcRn protein (human, UniProt P55899 24-297; P61769 21-119, limits assumed)
T1 construct: also called huFCRN; HuFcRn
assayExplanation: SPR, pH 7.4
pKd: −log10 of the molar value.

{"binder": "Fc Fragment 10 (other, Human IgG1 Fc fragment; substitutions already in the entry) DKTHTCPPCPAPELLGGPSVFLFPPKPKDTLYITREPEVTCVVVDVSHEDPEVKFNWYVDGVEVHNAKTKPREEQYNSTYRVVSVLTVLHQDWLNGKEYKCKVSNKALPAPIEKTISKAKGQPREPQVYTLPPSRDELTKNQVSLTCLVKGFYPSDIAVEWESNGQPENNYKTTPPVLDSDGSFFLYSKLTVDKSRWQQGNVFSCSVLHEALKYHYTQKSLSLSPG", "pKd": 6.77}
{"binder": "Fc Fragment 12 (other, Human IgG1 Fc fragment; substitutions already in the entry) DKTHTCPPCPAPELLGGPSVFLFPPKPKDTLYITREPEVTCVVVDVSHEDPEVKFNWYVDGVEVHNAKTKPREEQYNSTYRVVSVLTVLHQDWLNGKEYKCKVSNKALPAPIEKTISKAKGQPREPQVYTLPPSRDELTKNQVSLTCLVKGFYPSDIAVEWESNGQPENNYKTTPPVLDSDGSFFLYSKLTVDKSRWQQGNVFSCSVMHEALRYHYTQKSLSLSPG", "pKd": 6.78}
